- test_system: BCL6 (Homo sapiens, UniProt P41182)
- Construct: endogenous in cells; host or cells: T47D breast cancer epithelial cells
- measurement_notes: Immunofluorescence protocol for high content imaging of BCL6 (degradation) in T47D cells, 3 days compound treatment
- Format: cell-based
- condition: read-out: Mean DC50 (nM)* category
- Protocol: Immunofluorescence Protocol for High Content Imaging of BCL6 T47D cells were seeded in 100 μl volume of RPMI1640-10% FBS in a 96-well black/clear bottom plates for adherent lines (Corning #3904). Day 1. T47D breast cancer epithelial cells were seeded at a density so that confluence is ˜70-90% at endpoint. Cells were seeded at 7K/0.1 ml/well the morning prior to the addition of exemplary bifunctional degradation compounds. Day 2. […] Plates were equilibrated to room temperature prior to reading. […]
attribute_measured: DC50

Solved cases below.
[[record]]
compound = "CNC(=O)COc1cc2c(F)c(Nc3nc(N4CCC(CN5CCC6(CN(c7ccc8c(c7F)CN(C7CCC(=O)NC7=O)C8=O)C6)C(F)(F)C5)CC4)ncc3Cl)ccc2n(C(C)C)c1=O (centres unmarked)"
attribute_measured = "DC50"
result = "< 10 nM"

[[record]]
compound = "CNC(=O)COc1cc2cc(Nc3nc(N4CCC(O[C@H]5C[C@H](N6CC7(CCN7c7ccc8c(c7)C(=O)N(C7CCC(=O)NC7=O)C8)C6)C5)CC4)ncc3Cl)ccc2n(C(C)C)c1=O (some centres unmarked)"
attribute_measured = "DC50"
result = "10 to 50 nM"

[[record]]
compound = "CNC(=O)COc1cc2cc(Nc3cc(N4CCC(CN5CCC6(CC5)CN(c5ccc7c(c5)CN(C5CCC(=O)NC5=O)C7=O)C6(C)C)CC4)ncc3Cl)ccc2n(C(C)C)c1=O (centres unmarked)"
attribute_measured = "DC50"
result = "< 10 nM"

[[record]]
compound = "CNC(=O)COc1cc2cc(Nc3nc(N4CCC(O[C@H]5C[C@H](N6CCC(c7ccc8c(c7)C(=O)N(C7CCC(=O)NC7=O)C8=O)C6)C5)CC4)ncc3Cl)ccc2n(C(C)C)c1=O (some centres unmarked)"
attribute_measured = "DC50"
result = "10 to 50 nM"


Now let's try a different one.
Consider the compound shown here: CNC(=O)COc1cc2cc(Nc3nc(N4CCC(O[C@H]5C[C@H](N6CCC7(CC6)CN(c6ccc8c(c6C)C(=O)N(C6CCC(=O)NC6=O)C8=O)C7)C5)CC4)ncc3Cl)ccc2n(C(C)C)c1=O (some centres unmarked) What is its recorded DC50?
< 10 nM

###

- test_system: BCL6 (Homo sapiens, UniProt P41182)
- Construct: endogenous in cells; host or cells: T47D breast cancer epithelial cells
- measurement_notes: Immunofluorescence protocol for high content imaging of BCL6 (degradation) in T47D cells, 3 days compound treatment
- Format: cell-based
- condition: read-out: Mean DC50 (nM)* category
DC50 reference

[[record]]
compound = "CNC(=O)COc1cc2cc(Nc3nc(N4CCC(CN5CCC6(CC5)CC5(CN(c7cccc8c7C(=O)N(C7CCC(=O)NC7=O)C8=O)C5)C6)CC4)ncc3Cl)ccc2n(C(C)C)c1=O (centres unmarked)"
attribute_measured = "DC50"
result = "< 10 nM"

[[record]]
compound = "CNC(=O)COc1cc2cc(Nc3nc(N4CCC(O[C@H]5C[C@H](N6CCC7(CCN(c8ccc9c(c8)CN(C8CCC(=O)NC8=O)C9=O)C7)CC6)C5)CC4)ncc3Cl)ccc2n(C(C)C)c1=O (some centres unmarked)"
attribute_measured = "DC50"
result = "< 10 nM"

[[record]]
compound = "CNC(=O)COc1cc2cc(Nc3nc(N4CCC(O[C@H]5C[C@H](N6CCC(c7ccc8c(c7F)CN(C7CCC(=O)NC7=O)C8=O)CC6)C5)CC4)ncc3Cl)ccc2n(C2CCCCC2)c1=O (some centres unmarked)"
attribute_measured = "DC50"
result = "< 10 nM"

[[record]]
compound = "CNC(=O)COc1cc2cc(Nc3nc(N4CCC(O[C@H]5C[C@H](N6[C@H](C)CN(c7ccc8c(c7)C(=O)N(C7CCC(=O)NC7=O)C8=O)C[C@H]6C)C5)CC4)ncc3Cl)ccc2n(C(C)C)c1=O (some centres unmarked)"
attribute_measured = "DC50"
result = "10 to 50 nM"


Consider the compound shown here: CNC(=O)COc1cc2cc(Nc3nc(N4CCC(O[C@H]5C[C@H](N6CC=C(c7ccc8c(c7)CN(C7CCC(=O)NC7=O)C8=O)CC6)C5)CC4)ncc3Cl)ccc2n(C(C)C)c1=O (some centres unmarked) What is its recorded DC50?
< 10 nM
